I'd appreciate it if you could supply pIC50 values for the items below.
- TARGET_SYSTEM: GPR43 (Homo sapiens, UniProt O15552)
- Construct: expressed in transfected cells
- Sequence (O15552 whole entry): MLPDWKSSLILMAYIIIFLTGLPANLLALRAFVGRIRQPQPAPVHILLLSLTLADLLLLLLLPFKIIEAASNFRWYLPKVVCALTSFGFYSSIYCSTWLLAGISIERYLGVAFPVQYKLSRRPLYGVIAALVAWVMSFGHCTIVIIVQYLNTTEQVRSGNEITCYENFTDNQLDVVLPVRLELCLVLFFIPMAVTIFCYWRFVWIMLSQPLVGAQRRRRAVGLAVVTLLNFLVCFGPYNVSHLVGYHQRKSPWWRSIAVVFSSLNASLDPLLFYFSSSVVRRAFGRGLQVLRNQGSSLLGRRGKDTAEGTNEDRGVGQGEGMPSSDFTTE
- METHOD: Calcium mobilization assay with probenecid
- Format: cell-based
- STUDY_CONDITIONS: GPR43 stably expressing cells; triggered with sodium acetate at EC80; 2.5 mM probenecid; read-out: GPR43 assay with probenicid IC50
pIC50: −log10 of the molar value.

Prompt line: Recorded pIC50 of O=C(O)CN(Cc1ccc(Cl)cc1)C(=O)C1(CO)CCN1C(=O)Cc1csc2ccccc12 (stereo not drawn) [Compound 85] , please.
Response line: 6.30 to 7.00

Prompt line: Recorded pIC50 of Cc1cc(C)cc(CC(=O)N2CCC2(C)C(=O)N(CCCN2CCCC2=O)Cc2ccc(Cl)cc2)c1 (stereo not drawn) [Compound 149] , please.
Response line: < 6.00

Prompt line: Recorded pIC50 of COc1ccc(Cl)c(OC(=O)N2CCC2(C)C(=O)N(CCCC(=O)O)Cc2ccc(Cl)cc2)c1 (stereo not drawn) [Compound 215] , please.
Response line: < 6.00

Prompt line: Recorded pIC50 of CC1(C(=O)N(CCCC(=O)O)c2ccccn2)CCN1C(=O)c1csc2ccccc12 (stereo not drawn) [Compound 253] , please.
Response line: < 6.00

Prompt line: Recorded pIC50 of COC(=O)CN(Cc1ccc(Cl)cc1)C(=O)C1(C)CCN1C(=O)Cc1cc(C)cc(C)c1 (stereo not drawn) [Compound 48] , please.
Response line: 6.00 to 6.30

Prompt line: Recorded pIC50 of Cc1cc(C)cc(CC(=O)N2CCC2(C)C(=O)N(CCCC(=O)O)Cc2ccc3scnc3c2)c1 (stereo not drawn) [Compound 185] , please.
Response line: 6.00 to 6.30
